Value source: ChEMBL document CHEMBL5375961

Consider the following compounds and their measured CC50 at 600 h readings.
# Assay Notes: Cytotoxicity in African green monkey Vero E6 cells […] by Neutral red release assay
# Format: toxicity, cell-based, Vero C1008
# Measurement Context: chlorocebus sabaeus, Vero E6 cells
Parameter Measured: CC50 at 600 h (µM)

                                 smiles_str  parameter_measured  unit_string  relation  numeric_result
0  O=C(NCc1cccs1)[C@@H]1CN(C(=O)c2cc(=O)[nH]c3ccccc23)CCN1c1ccc(Cl)c(Cl)c1       CC50 at 600 h           µM         >             100
1  COc1ccncc1C(=O)N1CCN(c2ccc(Cl)c(Cl)c2)[C@H](C(=O)NCc2ccc(F)s2)C1       CC50 at 600 h           µM         >             100
2  COc1ccc(NC(=O)[C@@H]2CN(C(=O)c3cccnc3)CCN2c2ccc(Cl)c(Cl)c2)cc1       CC50 at 600 h           µM         =              95
3  COc1ccncc1C(=O)N1CCN(c2ccc(Cl)c(Cl)c2)[C@H](C(=O)NCc2cccs2)C1       CC50 at 600 h           µM         >             100
4  CC(C)(C)[C@H](NC(=O)C(F)(F)F)C(=O)N1C[C@H]2[C@@H]([C@H]1C(=O)N[C@H](C#N)C[C@@H]1CCNC1=O)C2(C)C       CC50 at 600 h           µM         >             100
5  O=C(NCc1cccs1)[C@@H]1CN(C(=O)c2cccnc2)CCN1c1ccc(Cl)c(Cl)c1       CC50 at 600 h           µM         =             100
6  O=C(NCc1cccs1)[C@@H]1CN(C(=O)c2cncc3cc[nH]c23)CCN1c1ccc(Cl)c(Cl)c1       CC50 at 600 h           µM         =              36
7  COc1cc(OC)c(NC(=O)[C@@H]2CN(C(=O)c3cnccc3OC)CCN2c2ccc(Cl)c(Cl)c2)cc1F       CC50 at 600 h           µM         =              79

====

# Test Target: Replicase polyprotein 1ab (Severe acute respiratory syndrome coronavirus 2, UniProt P0DTD1)
Parameter Measured: IC50 (nM)

>>> print(df.to_string())
                                 smiles_str  unit_string  numeric_result
0  COc1cc(OC)c(NC(=O)[C@@H]2CN(C(=O)c3cnccc3OC)CCN2c2ccc(Cl)c(Cl)c2)cc1F           nM             400
